# Tested on: SW982
# Experimental details: relative viability vs DMSO control (72 h) (fraction); higher = more viable cells
# Conditions used: 0.3704 µM
# relative viability annotations
Write no unit; give the number alone.

In the examples that follow, each entry is paired with its recorded relative viability.
COc1cc2c(Oc3ccc4[nH]c(C)cc4c3F)ccnc2cc1OCC1(N)CC1	0.997
N#CCC1(n2cc(-c3ncnc4[nH]ccc34)cn2)CN(C2CCN(C(=O)c3ccnc(C(F)(F)F)c3F)CC2)C1	0.956

Query: Form entry - test system: SW982; read-out: relative viability; molecule: `N#Cc1ccnc(N2C(=O)CC[C@H]2C(=O)N(c2cncc(F)c2)[C@H](C(=O)NC2CC(F)(F)C2)c2ccccc2Cl)c1`
Response: 0.966

Query: Now consider `CO[C@@H]1[C@H](N(C)C(=O)c2ccccc2)C[C@H]2O[C@]1(C)n1c3ccccc3c3c4c(c5c6ccccc6n2c5c31)C(=O)NC4` and answer again.
Response: 0.375

Query: Now consider `C=CC(=O)Nc1cc(Nc2nccc(-c3cn(C)c4ccccc34)n2)c(OC)cc1N(C)CCN(C)C` and answer again.
Response: 0.983

Query: Now consider `Cc1c(F)cc(C(=O)NC2CC2)cc1-c1ccc(C(=O)NCC(C)(C)C)cn1` and answer again.
Response: 1.07

Query: Now consider `Cc1ccc(C(=O)OCc2ccc([C@@H](CN)C(=O)Nc3ccc4cnccc4c3)cc2)c(C)c1` and answer again.
Response: 0.897

Query: Now consider `CCCCCCCCCCCCCCCCCCOP(=O)([O-])OC1CC[N+](C)(C)CC1` and answer again.
Response: 1.08

Query: Now consider `C[C@@H]1COC(Nc2ccc3ncnc(Nc4ccc(OCc5nccs5)c(Cl)c4)c3c2)=N1` and answer again.
Response: 0.932
